// cross-source set; read-out = Ki; system = Sodium-dependent noradrenaline transporter (Homo sapiens)
Readout Label: Ki (µM)

[[record]]
molecule = "Clc1cccc(O[C@@H](C2CC2)[C@H]2CCNC2)c1"
qualifier_symbol = "≤"
observed_result = 0.01

[[record]]
molecule = "Fc1ccc2nc(N3CCNCC3)nc(-c3cccc(F)c3F)c2c1"
qualifier_symbol = "="
observed_result = 0.0157

[[record]]
molecule = "Fc1cc(O[C@@H](C2CC2)[C@H]2CCNC2)ccc1Cl"
qualifier_symbol = "≤"
observed_result = 0.01

[[record]]
molecule = "CNC1CCN(c2nc(-c3cccc(F)c3F)c3ccccc3n2)C1 (centres unmarked)"
qualifier_symbol = "="
observed_result = 0.148

[[record]]
molecule = "CC(C)CC(Oc1cc(F)cc(Cl)c1)C1CCNC1 (centres unmarked)"
qualifier_symbol = "≤"
observed_result = 0.01

[[record]]
molecule = "OCc1cccc(-c2ccccc2CO[C@H]2CCNC2)c1"
qualifier_symbol = "="
observed_result = 1.19

[[record]]
molecule = "CC[C@@H](Oc1cc(F)cc(F)c1Cl)[C@H]1CCNC1"
qualifier_symbol = "≤"
observed_result = 0.1

[[record]]
molecule = "Fc1cc(Cl)ccc1Oc1cc(Cl)ccc1OC[C@H]1CCCNC1"
qualifier_symbol = "="
observed_result = 0.032

[[record]]
molecule = "Fc1ccc(-c2ccccc2CO[C@H]2CCNC2)cc1Cl"
qualifier_symbol = "="
observed_result = 0.0473

[[record]]
molecule = "CC(C)CC(Oc1c(F)ccc(Cl)c1Cl)C1CCNC1 (centres unmarked)"
qualifier_symbol = "≤"
observed_result = 0.01

[[record]]
molecule = "Cc1ccc(OC[C@H]2CCCNC2)c(Oc2ccc(Cl)cc2)n1"
qualifier_symbol = "="
observed_result = 0.0089

[[record]]
molecule = "N=C(N)NCc1ccc2cc(OCCCF)ccc2c1"
qualifier_symbol = "="
observed_result = 0.14

[[record]]
molecule = "Cc1ccc(F)cc1-c1nc(N2CCNCC2)nc2cc(F)ccc12"
qualifier_symbol = "="
observed_result = 0.0166

[[record]]
molecule = "CC(C)[C@H](Oc1cc(Cl)cc(Cl)c1)[C@H]1CCNC1"
qualifier_symbol = "≤"
observed_result = 0.1

[[record]]
molecule = "Fc1ccc(-c2ccc(F)c(F)c2)c(CO[C@H]2CCNC2)c1"
qualifier_symbol = "="
observed_result = 0.06

[[record]]
molecule = "Fc1ccc(-c2cccc(OC(F)(F)F)c2)c(CO[C@H]2CCNC2)c1"
qualifier_symbol = "="
observed_result = 0.331

[[record]]
molecule = "CCC[C@H](Oc1cccc(Cl)c1Cl)[C@H]1CCNC1"
qualifier_symbol = "≤"
observed_result = 0.01

[[record]]
molecule = "CC[C@H](Oc1c(F)ccc(OC)c1Cl)[C@H]1CCNC1"
qualifier_symbol = "≤"
observed_result = 0.01


---

// cross-source set; read-out = Ki; system = Sodium-dependent noradrenaline transporter (Homo sapiens)
Readout Label: Ki (nM)

[[record]]
compound = "N[C@H]1CCN(c2nc(-c3cccc(F)c3F)c3ccc(F)cc3n2)C1"
qualifier_symbol = "="
observed_result = 13.9

[[record]]
compound = "Clc1cc(Cl)c(O[C@@H](C2CC2)[C@H]2CCNC2)cc1Cl"
qualifier_symbol = "≤"
observed_result = 100

[[record]]
compound = "CCOc1ccc(-n2nc3c(N(CCO)Cc4ccncc4)nnc(C)c3c2C)c(F)c1"
qualifier_symbol = ">"
observed_result = 1000

[[record]]
compound = "c1ccc(Oc2ncccc2OC[C@H]2CCCNC2)cc1"
qualifier_symbol = "="
observed_result = 5

[[record]]
compound = "Fc1ccc(Oc2c(F)cccc2OC[C@H]2CCCNC2)c(Cl)c1"
qualifier_symbol = "="
observed_result = 3.6

[[record]]
compound = "CC[C@H](Oc1ccccc1C)[C@H]1CCNC1"
qualifier_symbol = "≤"
observed_result = 10

[[record]]
compound = "CCOc1ccc(-n2nc3c(NCc4ccccn4)nnc(C)c3c2C)c(F)c1"
qualifier_symbol = ">"
observed_result = 1000

[[record]]
compound = "COc1cc(-c2ccccc2CO[C@H]2CCNC2)cc(OC)c1OC"
qualifier_symbol = "≥"
observed_result = 10000

[[record]]
compound = "FC1(F)CCC(C(Oc2cc(Cl)cc(Cl)c2)C2CCNC2)CC1 (centres unmarked)"
qualifier_symbol = "≤"
observed_result = 10

[[record]]
compound = "CC1(COc2nn(-c3ccccc3F)c3ccc(F)cc23)CCCNC1 (centres unmarked)"
qualifier_symbol = "="
observed_result = 35.7

[[record]]
compound = "Fc1c(Cl)ccc(O[C@@H](C2CC2)[C@H]2CCNC2)c1Cl"
qualifier_symbol = "≤"
observed_result = 10

[[record]]
compound = "Fc1cc2nc(N3CCNCC3)nc(-c3cccc(F)c3F)c2cc1F"
qualifier_symbol = "="
observed_result = 28.5

[[record]]
compound = "CC[C@H](Oc1ccc(Cl)c(C)c1)[C@H]1CCNC1"
qualifier_symbol = "≤"
observed_result = 10

[[record]]
compound = "CNCC(Oc1cccc(-n2nc3c(N(C)C)nnc(C)c3c2C)c1)c1cccc(F)c1 (centres unmarked)"
qualifier_symbol = "<"
observed_result = 100

[[record]]
compound = "FC(F)(F)Oc1ccc(-c2ccccc2CO[C@H]2CCNC2)cc1"
qualifier_symbol = "="
observed_result = 2670

[[record]]
compound = "CC(C)COc1ccccc1O[C@@H](C)[C@H]1CCCNC1"
qualifier_symbol = "="
observed_result = 3

[[record]]
compound = "Cc1ccc(C)c(-c2ccc(F)cc2CO[C@H]2CCNC2)c1"
qualifier_symbol = "="
observed_result = 189

[[record]]
compound = "CC(C)CC(Oc1ccccc1Cl)C1CCNC1 (centres unmarked)"
qualifier_symbol = "≤"
observed_result = 10

[[record]]
compound = "CCOc1cc(Cl)ccc1O[C@H](C1CC1)[C@H]1CCNC1"
qualifier_symbol = "≤"
observed_result = 100

[[record]]
compound = "CC(C)Oc1ncccc1OC[C@H]1CCCNC1"
qualifier_symbol = "="
observed_result = 102

[[record]]
compound = "Fc1ccc2nc(N3CCNCC3)nc(-c3ccccc3)c2c1"
qualifier_symbol = "="
observed_result = 33.8

[[record]]
compound = "Fc1cccc(F)c1-c1nc(C2CCNCC2)nc2ccccc12"
qualifier_symbol = "="
observed_result = 2.9

[[record]]
compound = "CCCC[C@@H](Oc1cc(Cl)cc(Cl)c1)[C@H]1CCNC1"
qualifier_symbol = "≤"
observed_result = 10

[[record]]
compound = "Cc1cccc(-c2ccccc2CO[C@H]2CCNC2)c1C"
qualifier_symbol = "="
observed_result = 526

[[record]]
compound = "O=c1c(N2CCNCC2)nc2ccc(F)cc2n1-c1ccccc1"
qualifier_symbol = "="
observed_result = 59

[[record]]
compound = "CC[C@@H](Oc1c(F)ccc(Cl)c1F)[C@H]1CCNC1"
qualifier_symbol = "≤"
observed_result = 10

[[record]]
compound = "Fc1cc(Cl)cc(Cl)c1O[C@H](C1CC1)[C@H]1CCNC1"
qualifier_symbol = "≤"
observed_result = 10

[[record]]
compound = "CNC1CCN(c2nc(-c3ccc(F)cc3F)c3ccccc3n2)CC1"
qualifier_symbol = "="
observed_result = 150

[[record]]
compound = "CC(C)CCOc1ccccc1O[C@@H](C)[C@H]1CCCNC1"
qualifier_symbol = "="
observed_result = 16

[[record]]
compound = "CC(C)C[C@H](Oc1ccc(Cl)c(Cl)c1F)[C@H]1CCNC1"
qualifier_symbol = "≤"
observed_result = 10

[[record]]
compound = "Cc1cc(C)n(-c2cccc(-c3ccc(F)cc3CO[C@H]3CCNC3)c2)n1"
qualifier_symbol = "="
observed_result = 9630

[[record]]
compound = "O=c1c(N2CCNCC2)nc2cc(F)ccc2n1-c1ccccc1"
qualifier_symbol = "="
observed_result = 12

[[record]]
compound = "C[C@@H]1CN(c2nc(-c3ccccc3)c3ccccc3n2)CCN1"
qualifier_symbol = "="
observed_result = 34.5

